Data credit: the supplement of paper PMC11908140

B1: library; numbered along this chain (parent)
chain: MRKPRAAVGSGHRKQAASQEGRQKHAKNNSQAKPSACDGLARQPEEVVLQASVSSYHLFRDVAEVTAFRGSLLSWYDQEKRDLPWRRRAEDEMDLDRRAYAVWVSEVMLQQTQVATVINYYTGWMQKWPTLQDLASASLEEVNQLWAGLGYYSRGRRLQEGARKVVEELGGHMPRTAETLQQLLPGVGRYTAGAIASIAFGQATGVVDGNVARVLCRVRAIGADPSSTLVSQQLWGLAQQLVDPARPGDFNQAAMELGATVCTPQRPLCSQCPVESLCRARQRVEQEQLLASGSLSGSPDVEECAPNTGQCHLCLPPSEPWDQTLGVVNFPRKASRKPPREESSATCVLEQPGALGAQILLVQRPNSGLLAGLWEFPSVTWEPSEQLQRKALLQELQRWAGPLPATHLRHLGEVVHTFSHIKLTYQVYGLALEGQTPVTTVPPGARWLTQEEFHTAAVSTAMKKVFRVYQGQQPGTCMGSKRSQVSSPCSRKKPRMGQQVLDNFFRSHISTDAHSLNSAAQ

Variants of: B1
Assay: 8OG:A repair function score (normalized; synonymous = 0, nonsense = -1) (normalized log-likelihood score); higher = more repair activity (WT-like);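 also: cells sorted at 72 h after reporter transfection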
Details: with 8OG:A DNA repair reporter (GFP) in HEK-293 MUTYH KO cells
QUANTITY_MEASURED: 8OG:A repair function score

{"MUT": "Q472W", "VALUE": 0.027}
{"MUT": "C269E", "VALUE": -1.16}
{"MUT": "M462V", "VALUE": -0.097}
{"MUT": "A461N", "VALUE": -0.222}
{"MUT": "A357S", "VALUE": 0.0171}
{"MUT": "H420W", "VALUE": -0.434}
{"MUT": "P264W", "VALUE": -0.113}
{"MUT": "E168S", "VALUE": -0.0595}
{"MUT": "A63D", "VALUE": 0.00576}
{"MUT": "L95R", "VALUE": -0.104}
{"MUT": "L369C", "VALUE": -0.0782}
{"MUT": "I195T", "VALUE": -0.534}
{"MUT": "G155S", "VALUE": -0.0824}
{"MUT": "G236S", "VALUE": 0.254}
{"MUT": "G429M", "VALUE": -0.288}
{"MUT": "P174F", "VALUE": -0.961}
{"MUT": "R87Y", "VALUE": -0.052}
{"MUT": "L393H", "VALUE": 0.25}
{"MUT": "D322E", "VALUE": 0.0971}
{"MUT": "W85C", "VALUE": -1.57}
{"MUT": "K333H", "VALUE": -0.0128}
{"MUT": "V441W", "VALUE": -0.278}
{"MUT": "L58W", "VALUE": 0.00529}
{"MUT": "A223Q", "VALUE": -0.0573}
{"MUT": "W235G", "VALUE": -0.61}
{"MUT": "R266H", "VALUE": 0.00581}
{"MUT": "G497A", "VALUE": -0.0723}
{"MUT": "W447T", "VALUE": -1.01}
{"MUT": "T476V", "VALUE": -0.0294}
{"MUT": "E90Y", "VALUE": -0.107}
{"MUT": "G70I", "VALUE": -0.00774}
{"MUT": "W75K", "VALUE": -1.2}
{"MUT": "T66Q", "VALUE": 0.00332}
{"MUT": "A400V", "VALUE": -0.246}
{"MUT": "Q78A", "VALUE": -0.00817}
{"MUT": "V328G", "VALUE": -0.0273}
{"MUT": "R482Y", "VALUE": 0.0178}
{"MUT": "T436C", "VALUE": -0.201}
{"MUT": "K492P", "VALUE": 0.0192}
{"MUT": "I118G", "VALUE": -0.107}
